The reported numbers originate from paper PMC4774911.

Target chain: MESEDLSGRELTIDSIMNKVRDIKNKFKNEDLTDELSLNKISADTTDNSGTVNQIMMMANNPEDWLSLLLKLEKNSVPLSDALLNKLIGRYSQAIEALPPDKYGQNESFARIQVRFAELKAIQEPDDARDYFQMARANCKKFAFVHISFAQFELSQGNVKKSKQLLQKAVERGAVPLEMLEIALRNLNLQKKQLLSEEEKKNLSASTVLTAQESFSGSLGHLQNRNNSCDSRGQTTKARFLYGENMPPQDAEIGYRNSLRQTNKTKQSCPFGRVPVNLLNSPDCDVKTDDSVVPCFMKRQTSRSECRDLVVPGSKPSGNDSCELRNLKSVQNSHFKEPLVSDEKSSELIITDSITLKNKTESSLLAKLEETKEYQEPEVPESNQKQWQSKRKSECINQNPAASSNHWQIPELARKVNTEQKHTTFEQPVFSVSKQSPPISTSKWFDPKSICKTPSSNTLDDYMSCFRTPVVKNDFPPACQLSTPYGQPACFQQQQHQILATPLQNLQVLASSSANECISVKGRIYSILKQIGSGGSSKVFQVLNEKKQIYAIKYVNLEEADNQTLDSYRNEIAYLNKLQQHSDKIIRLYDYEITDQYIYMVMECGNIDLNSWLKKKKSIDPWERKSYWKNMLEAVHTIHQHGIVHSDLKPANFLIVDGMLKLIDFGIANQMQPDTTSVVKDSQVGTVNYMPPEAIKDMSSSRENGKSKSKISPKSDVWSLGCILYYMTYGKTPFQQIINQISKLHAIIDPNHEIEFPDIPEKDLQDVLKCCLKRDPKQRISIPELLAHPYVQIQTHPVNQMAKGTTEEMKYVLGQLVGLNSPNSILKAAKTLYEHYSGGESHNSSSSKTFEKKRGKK
pIC50: −log10 of the molar value.
Known pIC50 of a selection of compounds
REPORTED ENDPOINT: pIC50

1) Cl.NCC1(c2nc(-c3ccc(Cl)c(O)c3)c(-c3ccncc3)[nH]2)CCCCC1 [TCMDC-141154]; < 4.70
2) CN(C)CC(O)COc1ccc(Nc2ncc([N+](=O)[O-])c(Nc3ccccc3O)n2)cc1.O=C(O)C(F)(F)F (centres unmarked) [TCMDC-141399]; < 4.70
